experiment: Solubility of olaparib at 60° C. in solvents; format: physicochemical; details: ethanol (EtOH), organic solvent or mixture, EtOH

>  <molecular string>
O=C(c1cc(Cc2n[nH]c(=O)c3ccccc23)ccc1F)N1CCN(C(=O)C2CC2)CC1

>  <solubility>
21 to 23 mg/mL

$$$$

###

experiment: Solubility of olaparib at 60° C. in solvents; type: physicochemical; details: organic solvent or mixture, Pyridine

>  <molecular string>
O=C(c1cc(Cc2n[nH]c(=O)c3ccccc23)ccc1F)N1CCN(C(=O)C2CC2)CC1

>  <solubility>
> 210 mg/mL

$$$$

###

test: Solubility of olaparib at 60° C. in solvents; format: physicochemical; details: organic solvent or mixture, EA
recorded metric: solubility

>  <molecular string>
O=C(c1cc(Cc2n[nH]c(=O)c3ccccc23)ccc1F)N1CCN(C(=O)C2CC2)CC1

>  <recorded metric>
solubility

>  <experimental value>
< 16.2 mg/mL

$$$$

###

assay: Solubility of olaparib at 60° C. in solvents; assay type: physicochemical; details: acetonitrile (ACN), organic solvent or mixture, ACN

>  <molecular string>
O=C(c1cc(Cc2n[nH]c(=O)c3ccccc23)ccc1F)N1CCN(C(=O)C2CC2)CC1

>  <solubility>
< 16.2 mg/mL

$$$$

###

assay: Solubility of olaparib at 60° C. in solvents; format: physicochemical; conditions: organic solvent or mixture, DMAc

>  <molecular string>
O=C(c1cc(Cc2n[nH]c(=O)c3ccccc23)ccc1F)N1CCN(C(=O)C2CC2)CC1

>  <solubility>
> 220 mg/mL

$$$$

###

assay: Solubility of olaparib at 60° C. in solvents; type: physicochemical; settings: organic solvent or mixture, n-butanol
recorded metric: solubility

>  <molecular string>
O=C(c1cc(Cc2n[nH]c(=O)c3ccccc23)ccc1F)N1CCN(C(=O)C2CC2)CC1

>  <experimental value>
< 16.9 mg/mL

$$$$

###

test: Solubility of olaparib at 60° C. in solvents; assay type: physicochemical; conditions: organic solvent or mixture, THF
recorded metric: solubility

>  <molecular string>
O=C(c1cc(Cc2n[nH]c(=O)c3ccccc23)ccc1F)N1CCN(C(=O)C2CC2)CC1

>  <recorded metric>
solubility

>  <experimental value>
< 16.9 mg/mL

$$$$

###

assay: Solubility of olaparib at 60° C. in solvents; format: physicochemical; settings: organic solvent or mixture, Xylenes

>  <molecular string>
O=C(c1cc(Cc2n[nH]c(=O)c3ccccc23)ccc1F)N1CCN(C(=O)C2CC2)CC1

>  <solubility>
< 16.2 mg/mL

$$$$

###

assay: Solubility of olaparib at 60° C. in solvents; format: physicochemical; details: methanol (MeOH), organic solvent or mixture, MeOH

>  <molecular string>
O=C(c1cc(Cc2n[nH]c(=O)c3ccccc23)ccc1F)N1CCN(C(=O)C2CC2)CC1

>  <solubility>
53 to 70 mg/mL

$$$$

Numbers sourced from patent US10138211B2.
